# system-tested: SspH2 (aa 166–783) (Salmonella typhimurium)
# Construct: Recombinant SspH1 (aa 161–700) and SspH2 (aa 166–783) were both characterised; His-tag (N, cleaved yes)
# Sequence (D0ZPH9 166-783): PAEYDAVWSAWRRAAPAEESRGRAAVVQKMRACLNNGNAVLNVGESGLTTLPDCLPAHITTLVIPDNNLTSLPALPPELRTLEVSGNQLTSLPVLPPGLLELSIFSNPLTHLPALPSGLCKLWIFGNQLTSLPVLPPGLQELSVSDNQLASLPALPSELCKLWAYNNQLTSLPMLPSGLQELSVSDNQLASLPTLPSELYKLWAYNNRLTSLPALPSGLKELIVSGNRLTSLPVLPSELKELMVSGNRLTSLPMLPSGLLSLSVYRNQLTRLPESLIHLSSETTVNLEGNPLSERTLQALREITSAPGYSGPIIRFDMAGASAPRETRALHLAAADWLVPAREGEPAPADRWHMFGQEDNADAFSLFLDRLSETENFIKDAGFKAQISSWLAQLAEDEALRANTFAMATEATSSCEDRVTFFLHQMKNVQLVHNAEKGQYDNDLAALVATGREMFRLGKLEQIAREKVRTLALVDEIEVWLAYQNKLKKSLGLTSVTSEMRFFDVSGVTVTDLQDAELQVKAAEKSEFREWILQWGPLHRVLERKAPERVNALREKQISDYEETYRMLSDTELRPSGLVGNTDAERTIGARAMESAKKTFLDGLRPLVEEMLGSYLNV
# experimental-protocol: Full kinetics characterisation of covalent labelling by intact LC-MS
# Experimental: Fig. 3 Validation of HTC hit compounds by intact MS. Labelling heatmaps of dilution series (100–6.25 μM) of compounds 4–10 with (A) WT SspH1 and (B) C492K SspH1. Labelling heatmaps of dilution series of (C) compound 6 and (D) compound 7 with bacterial and human ubiquitin binding proteins. Recombinant proteins were incubated at either 1.0 or 0.5 μM with 50 μM fragments for 24 hours at 4 °C, before fragment labelling was analysed by intact LC-MS. […]
pKi: −log10 of the molar value.

| compound | system-tested | pKi |
| --- | --- | --- |
| Cl.O=C(CCl)N1CCC(n2c(-c3ccc(C(F)(F)F)cc3)nc3ccccc32)CC1 [compound 7] | SspH2 (aa 166–783) (Salmonella typhimurium) | < 4.30 |
| Cc1cc(-c2nc3ccccc3n2C2CCN(C(=O)CCl)CC2)cc(C)c1O.Cl [compound 6] | SspH2 (aa 166–783) (Salmonella typhimurium) | < 4.30 |

====

List of pKi values.
# system-tested: SspH1 (aa 161–700) (Salmonella typhimurium)
# Construct: Recombinant IpaH9.8 (21–545) and SspH1 (161–700) were incubated at 0.5 μM; His-tag (N, cleaved yes)
# Sequence (D0ZVG2 161-700): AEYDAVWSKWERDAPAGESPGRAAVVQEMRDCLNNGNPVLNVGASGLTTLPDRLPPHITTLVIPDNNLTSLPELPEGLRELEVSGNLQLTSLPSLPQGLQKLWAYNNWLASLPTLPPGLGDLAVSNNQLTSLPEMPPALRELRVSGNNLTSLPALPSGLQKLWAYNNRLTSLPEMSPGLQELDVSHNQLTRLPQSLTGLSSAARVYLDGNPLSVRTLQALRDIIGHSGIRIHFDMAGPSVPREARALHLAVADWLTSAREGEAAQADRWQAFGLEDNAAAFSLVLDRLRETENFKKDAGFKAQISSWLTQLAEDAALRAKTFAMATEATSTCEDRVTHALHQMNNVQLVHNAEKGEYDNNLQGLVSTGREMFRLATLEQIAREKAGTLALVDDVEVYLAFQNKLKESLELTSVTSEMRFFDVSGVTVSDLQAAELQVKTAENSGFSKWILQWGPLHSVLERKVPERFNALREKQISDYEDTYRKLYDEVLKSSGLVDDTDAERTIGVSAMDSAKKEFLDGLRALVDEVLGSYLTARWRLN
# experimental-protocol: Full kinetics characterisation of covalent labelling by intact LC-MS
pKi: −log10 of the molar value.

| compound | system-tested | pKi |
| --- | --- | --- |
| Cl.O=C(CCl)N1CCC(n2c(-c3ccc(C(F)(F)F)cc3)nc3ccccc32)CC1 [compound 7] | SspH1 (aa 161–700) (Salmonella typhimurium) | < 4.00 |
| Cc1cc(-c2nc3ccccc3n2C2CCN(C(=O)CCl)CC2)cc(C)c1O.Cl [compound 6] | SspH1 (aa 161–700) (Salmonella typhimurium) | < 4.00 |
